Please find below pIC50 measurements for Cathepsin K (Homo sapiens), combined from several publications.
pIC50: −log10 of the molar value.
Rule: pIC50 under 9 gives Not met, otherwise Met.

compound	category-label
CCCC[C@H](NC(=O)O[C@@H](Cc1nnc(-c2ccccc2)o1)C(C)(C)C)C(=O)C(=O)N[C@H](C)c1ccccc1	Not met
CC(C)CC(C(=O)NCC#N)c1cccc(-c2ccccc2N2CCNCC2)c1 (stereo not given)	Not met
CCCC[C@H](NC(=O)O[C@H](Cc1nnc(-c2ccc(C(F)(F)F)cc2)o1)C(C)(C)C)C(=O)C(=O)Nc1ccn[nH]1	Met
CC(C)CC(C(=O)NCC#N)c1cccc(-c2ccncc2)c1 (stereo not given)	Not met
CC(C)C[C@@H](C(=O)NCC#N)c1cccc(-c2ccc(-c3nnn[nH]3)cc2)c1	Not met
CCCC[C@H](NC(=O)O[C@H](Cc1nnc(-c2ccc(C(F)(F)F)cc2)o1)C(C)(C)C)C(=O)C(=O)NN1CCOC1=O	Met
CC(C)CC(C(=O)NCC#N)c1cccc(-c2ccccn2)c1 (stereo not given)	Not met
N#CN1CC(CNC(=O)C2CCCCC2)C1	Not met
CCCC[C@H](NC(=O)O[C@H](Cc1nnc(-c2ccc(C(F)(F)F)cc2)o1)C(C)(C)C)C(=O)C(=O)N[C@H](C)c1ccccc1	Met
CCCC[C@H](NC(=O)O[C@H](Cc1nnc(-c2ccccc2)o1)C(C)(C)C)C(=O)C(=O)N[C@H](C)c1ccccc1	Met
